Target: Mdm2/p53 binding (GST-Mdm2 / His-p53) (Homo sapiens, UniProt Q00987, L33E)
Construct: Mdm2 partial protein having Mdm2 amino acids at positions 25 to 108
Sequence (Q00987 25-108 L33E): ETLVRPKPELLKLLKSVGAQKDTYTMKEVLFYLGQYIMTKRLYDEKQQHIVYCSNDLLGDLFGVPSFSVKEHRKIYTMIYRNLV
Test: Mdm2/p53 binding assay (HTRF, His-p53 and GST-Mdm2)
Details: His-p53 (aa 1-132) and GST-Mdm2 (aa 25-108, L33E) 6.25 nM each; 25°C, 1 hour; values given as ranges
pIC50: −log10 of the molar value.
outcome.measure: pIC50

molecule	pIC50
CC1(C)CCC2(CC1)N[C@@H](C(=O)N[C@@H]1CC[C@@H](c3n[nH]c(=O)o3)OC1)[C@H](c1ccnc(Cl)c1F)[C@]21C(=O)Nc2nc(Cl)ccc21 [Example 65]	7.30 to 9.00

State the recorded pIC50 for this entry: O=C(N[C@@H]1CC[C@@H](CO)OC1)[C@@H]1NC2(CC(CF)(CF)C2)[C@@]2(C(=O)Nc3cc(Cl)ccc32)[C@H]1c1cc(F)cc(Cl)c1 [Example 164]
6.30 to 7.00

Entry under review: CC1(C)CCC2(CC1)N[C@@H](C(=O)N[C@@H]1CCC(C)(C(N)=O)OC1)[C@H](c1ccnc(Cl)c1F)[C@]21C(=O)Nc2cc(Cl)ccc21 (some centres unmarked) [Example 187] . Reported pIC50?
7.30 to 9.00

Look up pIC50: CC1(C)CCC2(CC1)N[C@@H](C(=O)N[C@@H]1CC[C@@H](CO)OC1)[C@H](c1cc(Cl)cc(CO)c1)[C@]21C(=O)Nc2cc(Cl)ccc21 [Example 28]
7.30 to 9.00
